TEST METHOD NOTES: Oral bioavailability in rat at 10 mL/kg
Format: ADME, organism-based
CONDITION NOTES: in vivo
READOUT LABEL: bioavailability (%)

a = CS(=O)(=O)c1ccc(-c2cn(CC(F)(F)F)nc2[C@@H]2CCC(Cl)(Cl)C[C@H]2C(=O)NC2(C#N)CC2)cc1
b = CS(=O)(=O)c1ccc(-c2cn(CC(F)(F)F)nc2[C@@H]2CCC(F)(F)C[C@H]2C(=O)NC2(C#N)CC2)cc1
Incoming: Between the entries labelled a and b , which has a larger bioavailability value on record? Your choice should be expressed through its label.
Outgoing: a
(a: 105%, b: 25%)

====

TEST METHOD NOTES: Metabolic stability in po dosed rat urine assessed as drug recovery after 96 hrs
Format: ADME, organism-based
CONDITION NOTES: read-out: Stability
READOUT LABEL: dose excreted at 96 h (%)
Value expressed in %; do not type the unit.

Lab note: measured dose excreted at 96 h of "CS(=O)(=O)c1ccc(-c2cn(CC(F)(F)F)nc2[C@@H]2CCC(Cl)(Cl)C[C@H]2C(=O)NC2(C#N)CC2)cc1" was 18

====

TEST METHOD NOTES: Oral bioavailability in dog at 5 mL/kg
Assay type: ADME, organism-based, Canis lupus familiaris
CONDITION NOTES: in vivo
READOUT LABEL: bioavailability (%)

1 = CS(=O)(=O)c1ccc(-c2cn(CC(F)(F)F)nc2[C@@H]2CCC(F)(F)C[C@H]2C(=O)NC2(C#N)CC2)cc1
2 = CS(=O)(=O)c1ccc(-c2cn(CC(F)(F)F)nc2[C@@H]2CCC(Cl)(Cl)C[C@H]2C(=O)NC2(C#N)CC2)cc1
Incoming: Between 1 and 2 , which one has the lower reported bioavailability value? Your choice should be expressed through its label.
Outgoing: 1

====

TEST METHOD NOTES: Bone resorption shift, ratio of IC50 for inhibition of bone resorption in rabbit bone to IC50 for rabbit cathepsin K
Format: functional, Oryctolagus cuniculus
READOUT LABEL: Ratio IC50
Response field accepts a number only; no unit should be typed.

[
  {
    "COMPOUND": "CS(=O)(=O)c1ccc(-c2c[nH]nc2[C@@H]2CCC(F)(F)C[C@H]2C(=O)NC2(C#N)CC2)cc1",
    "READOUT LABEL": "Ratio IC50",
    "VALUE OBSERVED": 7
  },
  {
    "COMPOUND": "CSc1ccc(-c2ccccc2[C@@H]2CCC(F)(F)C[C@H]2C(=O)NCC#N)cc1",
    "READOUT LABEL": "Ratio IC50",
    "VALUE OBSERVED": 53
  },
  {
    "COMPOUND": "CSc1ccc(-c2cn(C)nc2[C@@H]2CCC(F)(F)C[C@H]2C(=O)NCC#N)cc1 (racemic)",
    "READOUT LABEL": "Ratio IC50",
    "VALUE OBSERVED": 100
  },
  {
    "COMPOUND": "Cn1cc(-c2ccc(S(C)(=O)=O)cc2)c([C@@H]2CCC(F)(F)C[C@H]2C(=O)NC2(C#N)CC2)n1",
    "READOUT LABEL": "Ratio IC50",
    "VALUE OBSERVED": 8
  },
  {
    "COMPOUND": "CS(=O)(=O)c1ccc(-c2cn(CC(F)(F)F)nc2[C@@H]2CCC(F)(F)C[C@H]2C(=O)NC2(C#N)CC2)cc1",
    "READOUT LABEL": "Ratio IC50",
    "VALUE OBSERVED": 6
  }
]

Now look at this one.
Lab note: measured Ratio IC50 of "CS(=O)(=O)c1ccc(-c2cn(CC(F)(F)F)nc2[C@@H]2CCC(Cl)(Cl)C[C@H]2C(=O)NC2(C#N)CC2)cc1" was 8

Origin of the recorded values: ChEMBL document CHEMBL1140150
